Biological target: UniProt:P50052
Sequence (P50052 whole entry, looked up, the tested form may be a part): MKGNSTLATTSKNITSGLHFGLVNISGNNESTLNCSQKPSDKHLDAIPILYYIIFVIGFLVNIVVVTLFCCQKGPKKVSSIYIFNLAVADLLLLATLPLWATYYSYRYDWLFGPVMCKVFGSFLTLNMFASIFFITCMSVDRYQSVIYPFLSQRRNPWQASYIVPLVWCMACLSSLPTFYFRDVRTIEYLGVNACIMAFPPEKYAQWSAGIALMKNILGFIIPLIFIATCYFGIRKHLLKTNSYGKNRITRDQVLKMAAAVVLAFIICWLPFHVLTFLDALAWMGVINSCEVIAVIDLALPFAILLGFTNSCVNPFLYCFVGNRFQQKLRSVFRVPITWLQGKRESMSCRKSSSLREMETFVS
Experiment: Radioligand binding assay, displacement of 125I-[Sar1, Ile8]-Angiotensin II, hAT2R Cb23
Conditions: displacement of 125I-[Sar1, Ile8]-Angiotensin II, human AT2R fused to Cb23, HEK-293 cell membrane preparations; read-out: Binding affinity on hAT2R_Cb23 IC50
Description: All synthesized ligands were evaluated in a radioligand assay by displacing ^125I-[Sar1, Ile8]-Angiotensin II (Perkin Elmer, NEX248050UC) from human AT2R fused to Cb23 or human/rodent/cynomolgus/minipig/dog WT AT2R in HEK-293 cells membrane preparations, using C21 (Vicore Pharma) and Angiotensin II (endogenous ligand) as reference. The affinity was determined using an eight-point dose-response curve, each point performed in duplicates. […]
Please use Yes for IC50 under 9 µM and No for everything else, ties included.

1. CC(C)Oc1cc(F)c(-c2nn[nH]n2)c(N2CCN(Cc3cccnn3)CC2)c1 [Compound A-156]; No
2. CCc1cc(-c2nn[nH]n2)c(N2CCN(Cc3nc4ccccc4s3)CC2)cc1OC(C)C [Compound A-119]; No
3. CC(C)Cc1cc(F)c(-c2nn[nH]n2)c(N2CCN(Cc3cccnn3)CC2C)c1 (centres unmarked) [Compound A-180]; Yes
4. CC(C)Cc1ccc(-c2nn[nH]n2)c(N2CCN(Cc3nc4ccccc4s3)CC2)c1 [Compound A-48]; Yes
5. CC(C)Cc1cc(F)c(-c2nn[nH]n2)c(N2CCN(Cc3ccc(F)cn3)CC2)c1 [Compound A-195]; Yes
6. O=c1[nH]c(CN2CCN(c3ccccc3-c3nn[nH]n3)CC2)nc2ccccc12 [Compound A-26]; No
7. CNc1cc(-c2nn[nH]n2)c(N2CCN(Cc3nc4ccccc4s3)CC2)cc1CC(C)C [Compound A-139]; Yes
8. CC(C)Cc1cc(F)c(-c2nn[nH]n2)c(N2CCN(C(C)c3ccccn3)[C@@H](C)C2)c1 (some centres unmarked) [Compound A-218]; Yes
9. CC(C)Oc1ccc(-c2nn[nH]n2)c(N2CCN(Cc3cccnn3)CC2)c1F [Compound A-157]; No
10. CCS(=O)(=O)NC(=O)c1ccccc1N1CCN(Cc2nc3ccccc3n2C)CC1 [Compound A-13]; No
11. c1ccc2sc(CN3CCN(c4cc(OC5CC5)ccc4-c4nn[nH]n4)CC3)nc2c1 [Compound A-52]; Yes
